Listed here: compounds with reported IC50 for Xanthine dehydrogenase/oxidase (Bos taurus).
Report as a plain number; the unit µM is understood.

// below: answered compounds
INSERT INTO assay_data (structure_as_smiles, measured_property, units_text, meas_value) VALUES
  ('O=C(O)c1cc(-c2ccc(OCc3ccccc3)c([N+](=O)[O-])c2)on1', 'IC50', 'µM', 0.97),
  ('CC(C)(C)c1ccc(COc2ccc(-c3cc(C(=O)O)no3)cc2C#N)cc1', 'IC50', 'µM', 1.01);

Task item: Suppose we examine the compound `O=C(O)c1cc(-c2ccc(OCc3ccc(Cl)cc3)c([N+](=O)[O-])c2)on1` ; what IC50 value has been reported?
Reply: 2.83

Numbers sourced from ChEMBL document CHEMBL1165871.
